# measured_target: isolated kinase domain of the human FLT3 receptor (a.a. 571-993) (Homo sapiens)
# Construct: isolated kinase domain of the human FLT3 receptor (a.a. 571-993)
# Sequence (P36888 571-993): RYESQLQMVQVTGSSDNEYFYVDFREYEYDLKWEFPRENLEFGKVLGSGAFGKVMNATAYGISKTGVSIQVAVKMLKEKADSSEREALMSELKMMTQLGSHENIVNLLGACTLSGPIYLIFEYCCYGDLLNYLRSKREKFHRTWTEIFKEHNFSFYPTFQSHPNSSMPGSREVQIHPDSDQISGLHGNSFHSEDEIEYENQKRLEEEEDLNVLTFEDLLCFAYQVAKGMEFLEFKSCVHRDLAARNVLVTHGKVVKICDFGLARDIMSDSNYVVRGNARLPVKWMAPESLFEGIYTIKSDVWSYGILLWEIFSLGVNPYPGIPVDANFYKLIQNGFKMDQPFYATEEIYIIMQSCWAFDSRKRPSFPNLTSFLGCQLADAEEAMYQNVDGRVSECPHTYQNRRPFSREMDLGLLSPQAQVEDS
# test_details: FLT3 Fluorescence Polarization Kinase Assay
# experimental_conditions: 10 nM FLT3 571-993, 150 uM ATP; uncertainty ±10%
Quick reference: IC50 of the listed items.
Give the value in nM but do not write nM after it.

[[record]]
compound = "CO/N=C/c1c(N)ncnc1N1CCC(CC(=O)Nc2ccc(C(C)C)cc2)C1 (stereo not shown)"
test_result = 16

[[record]]
compound = "CCNC(=O)NCCO/N=C/c1c(N)ncnc1N1CCC(NC(=O)Nc2ccc(C(C)C)cc2)C1 (stereo not shown)"
test_result = 2700

[[record]]
compound = "CO/N=C/c1c(N)ncnc1N1CCC(NC(=O)Nc2ccc(Oc3ccccc3)cc2)C1 (stereo not shown)"
test_result = 2500

[[record]]
compound = "CO/N=C/c1c(N)ncnc1N1CCC(NC(=O)Cc2ccc(C(C)C)cc2)CC1"
test_result = 1800


query: Recall and state the measured IC50 for CO/N=C/c1c(N)ncnc1N1CCC(OC(=O)Nc2ccc(OC(C)C)cc2)CC1 .
result: 150

query: Recall and state the measured IC50 for CC(C)Oc1ccc(NC(=O)OC2CCN(c3ncnc(N)c3/C=N/OCCN3CCOCC3)CC2)cc1 .
result: 820

query: Recall and state the measured IC50 for CO/N=C/c1c(N)ncnc1N1CCC(NC(=O)Nc2ccc(OC(C)C)cc2)C1 (stereo not shown) .
result: 290

query: Recall and state the measured IC50 for CO/N=C/c1c(N)ncnc1N1CCC(NC(=O)Nc2ccc(Cl)cc2)C1 (stereo not shown) .
result: 2970

query: Recall and state the measured IC50 for CO/N=C/c1c(N)ncnc1N1CCC(NC(=O)Nc2ccc(OC3CCC3)nc2)C1 (stereo not shown) .
result: 160

query: Recall and state the measured IC50 for CO/N=C/c1c(N)ncnc1N1CCC(NC(=O)Nc2ccc(OC3CCCC3)nc2)C1 (stereo not shown) .
result: 4500

====

Quick reference: pIC50 of the listed items.
# Tested on: MV4-11 cells
# test_details: Inhibition of MV4-11 cell proliferation (CellTiterGlo, 72 hours)
# Type: cell-based
# experimental_conditions: Homo sapiens; 72 hours growth; uncertainty ±20%
Reminder that pIC50 is minus the log10 of a molar concentration.

[[record]]
molecule = "CO/N=C/c1c(N)ncnc1N1CCC(NC(=O)Nc2ccc(N3CCCC3)cc2)C1 (stereo not shown)"
test_result = 6.31


query: Recall and state the measured pIC50 for CO/N=C/c1c(N)ncnc1N1CCC(NC(=O)Nc2ccc(N3CCCCC3)cc2)C1 (stereo not shown) .
result: 6.12

query: Recall and state the measured pIC50 for CO/N=C/c1c(N)ncnc1N1CCC(CC(=O)Nc2ccc(C(C)C)cc2)CC1 .
result: 6.68

query: Recall and state the measured pIC50 for CCO/N=C/c1c(N)ncnc1N1CCC(OC(=O)Nc2ccc(OC(C)C)cc2)CC1 .
result: 6.87

query: Recall and state the measured pIC50 for CO/N=C/c1c(N)ncnc1N1CCC(NC(=O)Nc2ccc(C3CCCCC3)cc2)CC1 .
result: 6.17

query: Recall and state the measured pIC50 for CC(C)c1ccc(NC(=O)NC2CCN(c3ncnc(N)c3/C=N/OCC(=O)N3CCOCC3)C2)cc1 (stereo not shown) .
result: 6.07

Origin of the recorded values: patent US20060281700A1
